These data points were gathered from PubChem BioAssay AID588757.

- assay system: Aurora kinase B (Homo sapiens)
- protocol: Aurora B kinase inhibition counter-screen, dose response, counter-screen for STK33 inhibitor project, biochemical, scintillation, dry powder (AID 588757)
- assay context: ATP at Km, gamma-32P-ATP, 40 min room temperature, P30 filtermat scintillation counting, at 3 µM (top of the series)
Activity calls are given as the source filed them.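 How the source made its calls: active means compounds whose fitted half-maximal concentration is at most ten times their top valid tested dose; inconclusive means flat fit showing moderate inhibition, or poor fit quality; inactive means the rest.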
observable: activity change, negative = inhibition

{"columns": ["compound", "test value"],
 "data": [
  ["COC(=O)c1ccc(COc2ccccc2/C=C/C(=O)c2ccc(OCC(=O)O)cc2)cc1", "inactive"],
  ["O=S(=O)(c1cccc2cnccc12)N1CCCNCC1", "inactive"],
  ["CC(=O)N(C)c1ccc(N=Cc2c(O)ccc3ccccc23)cc1", "inactive"],
  ["COc1cc(/C=C2\\SC(N)=NC2=O)ccc1O", "inactive"]
]}

Recall and state the measured activity change, negative = inhibition for `O=C(Nc1ccccc1-c1nc2ccccc2[nH]c1=O)c1cccs1` . inactive

Name the recorded activity change, negative = inhibition of the item COc1cc(C(=O)NC2CCN(C)CC2)ccc1Nc1ncc2c(n1)N(C1CCC(O)CC1)CCC(=O)N2C (configuration not stated) in your answer. inactive

Give activity change, negative = inhibition for `COc1cc(/C=N/n2c(-c3ccccc3)n[nH]c2=S)ccc1O` inactive
